Measured pKd, listed per entry for reference.
Target Entity: T1, Human CD98 ECD with N-terminal His-tag (human, UniProt P08195 105-529)
T1 construct: The entry includes the linker and the polyhistidine tag; also called huCD98 ECD
T1 sequence: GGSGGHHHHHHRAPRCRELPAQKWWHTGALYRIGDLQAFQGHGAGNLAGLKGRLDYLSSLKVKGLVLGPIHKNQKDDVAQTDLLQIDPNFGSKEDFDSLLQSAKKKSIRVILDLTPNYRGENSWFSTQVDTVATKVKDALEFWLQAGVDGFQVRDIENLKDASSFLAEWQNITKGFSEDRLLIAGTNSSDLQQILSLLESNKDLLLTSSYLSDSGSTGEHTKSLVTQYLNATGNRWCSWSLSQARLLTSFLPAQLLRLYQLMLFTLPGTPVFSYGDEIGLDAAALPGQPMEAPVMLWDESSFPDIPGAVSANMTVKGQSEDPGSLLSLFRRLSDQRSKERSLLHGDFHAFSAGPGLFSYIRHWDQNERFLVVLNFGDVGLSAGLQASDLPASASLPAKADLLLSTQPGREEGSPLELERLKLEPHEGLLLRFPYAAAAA
Assay Comment: SPR (Biacore), recombinant CD98 ECD
Lab note: report pKd as minus log10 of the concentration in molar units, number only.

Binder	pKd
huAb106 (antibody, V domains shown, Framework re-engineered humanized clone (parent huAb15v1), expressed as full-length IgG) VH: EVQLVQSGAEVKKPGASVKVSCKASGFTFSDYTMAWVRQAPGQGLEWVATIIYSGRGTYYRDAVKGRFTITRDNSTSTLYLELSSLRSEDTAVYYCARQSDHTYYYWGYFDYWGQGTMVTVSS VL: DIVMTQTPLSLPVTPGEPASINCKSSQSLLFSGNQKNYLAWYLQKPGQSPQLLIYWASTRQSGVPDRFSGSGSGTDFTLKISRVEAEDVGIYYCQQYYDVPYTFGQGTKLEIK	9.80

Below: the item to evaluate.
Name the recorded pKd for huAb110 (antibody, human IgG1, kappa, L234A L235A, V domains shown, Framework re-engineered humanized clone (parent huAb15v6); also called CL-huAb110) VH: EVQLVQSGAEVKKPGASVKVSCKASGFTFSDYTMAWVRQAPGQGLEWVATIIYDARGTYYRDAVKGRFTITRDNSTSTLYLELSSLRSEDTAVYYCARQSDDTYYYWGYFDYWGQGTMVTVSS VL: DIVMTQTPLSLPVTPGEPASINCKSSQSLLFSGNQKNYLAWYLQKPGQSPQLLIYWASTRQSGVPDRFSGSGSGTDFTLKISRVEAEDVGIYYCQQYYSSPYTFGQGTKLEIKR .
8.64
